Assay Notes: Plasma concentration in mouse infected with Plasmodium berghei ANKA at 50 mg/kg/day, po after 4 hrs by HPLC analysis
Format: ADME, organism-based
Set-up: route oral
Assay Endpoint: concentration at 4 h (nM)

[a] C[S+]([O-])c1cccc(-c2ccc3ncc(-c4ccc(S(C)(=O)=O)cc4)n3n2)c1 (stereo not given)
[b] C[S+]([O-])c1ccc(-c2cnc3ccc(-c4cccc([S+](C)[O-])c4)nn23)cc1 (stereo not given)
[c] C[S+]([O-])c1ccc(-c2cnc3ccc(-c4cccc(S(=O)(=O)C5CC5)c4)nn23)cc1 (stereo not given)
Query block: Please list these compounds in decreasing order of concentration at 4 h. Output spec: a listing of the labels in the requested order.
Result block: b, a, c
(b: 760 nM, a: 490 nM, c: 20 nM)

----------
Assay Notes: Plasma concentration in mouse infected with Plasmodium berghei ANKA at 50 mg/kg/day, po after 24 hrs by HPLC analysis
Assay type: ADME, organism-based
Parameters: route oral
Items are presented alongside their recorded concentration at 24 h.

Query block: # get_value(readout='concentration at 24 h', item= CS(=O)(=O)c1cccc(-c2ccc3ncc(-c4ccc(C(=O)N5CCC(O)C5)cc4)n3n2)c1 (configuration not stated) )
Result block: < 10 nM

New cases:
Query block: Quick one: concentration at 24 h for "CS(=O)(=O)c1ccc(-c2cnc3ccc(-c4cccc(S(=O)(=O)CCCN)c4)nn23)cc1" ?
Result block: < 10 nM

----------
Assay Notes: Aqueous solubility of the compound at pH 6.5
Assay type: physicochemical
Experimental Setup: buffer
Assay Endpoint: solubility

Please review the entries below; each comes with its answer.
Query block: Param item = "NC(=O)c1ccc(-c2cnc3ccc(-c4cccc(S(=O)(=O)C5CC5)c4)nn23)cc1" ; retrieve measured solubility.
Result block: < 5 µM

Query block: If you can, please state the reported solubility value of "CS(=O)(=O)c1ccc(-c2cnc3ccc(-c4cncc(S(C)(=O)=O)c4)nn23)cc1" .
Result block: < 5 µM

Query block: What does the record list as solubility for "CS(=O)(=O)c1cncc(-c2ccc3ncc(-c4ccc(S(=O)(=O)C5CC5)cc4)n3n2)c1" ?
Result block: < 5 µM

Query block: Give the measured solubility of C[S+]([O-])c1ccc(-c2cnc3ccc(-c4cccc(S(C)(=O)=O)c4)nn23)cc1 (stereo unspecified) .
Result block: 98 µM

Query block: Data request, read-out solubility, for "CS(=O)(=O)c1ccc(-c2cnc3ccc(-c4cccc(C(=O)N5CCC(O)CC5)c4)nn23)cc1"
Result block: 178 µM

Query block: // solubility lookup, key: "CS(=O)(=O)c1ccc(-c2cnc3ccc(-c4cccc(S(=O)(=O)CCO)c4)nn23)cc1"
Result block: 8.6 µM

More entries:
Query block: Consider the compound "CS(=O)(=O)c1ccc(-c2cnc3ccc(-c4cncc(C(F)(F)F)c4)nn23)cc1" and give its measured solubility.
Result block: < 5 µM

Query block: Please give the measured solubility for this compound: "CS(=O)(=O)c1cccc(-c2ccc3ncc(-c4ccc(N)nc4)n3n2)c1"
Result block: < 5 µM

Query block: Can you look up the measured solubility of "CS(=O)(=O)c1cncc(-c2ccc3ncc(-c4ccc(S(C)(=O)=O)nc4)n3n2)c1" for me?
Result block: 13 µM

Query block: Give the measured solubility of "CS(=O)(=O)c1ccc(-c2cnc3ccc(-c4ccnc(C(F)(F)F)c4)nn23)cc1" .
Result block: < 5 µM

Query block: Endpoint output: solubility of "CS(=O)(=O)c1ccc(-c2cnc3ccc(-c4cccc(C(=O)NCCO)c4)nn23)cc1" . Value?
Result block: > 100 µM

Query block: Any idea what its solubility is? The compound is "O=S(=O)(c1cccc(-c2ccc3ncc(-c4ccc(-c5nnn[nH]5)cc4)n3n2)c1)C1CC1"
Result block: 183 µM

Query block: Fill blank: measured solubility of the compound "CS(=O)(=O)c1cccc(-c2ccc3ncc(-c4ccc(S(=O)(=O)N5CCNCC5)cc4)n3n2)c1" is ____.
Result block: 162 µM

Query block: // query solubility value for entry "CS(=O)(=O)c1ccc(-c2cnc3ccc(-c4cccc(S(=O)(=O)C5CC5)c4)nn23)cc1"
Result block: < 5 µM

Query block: What value of solubility has been recorded for this entry: "CS(=O)(=O)c1ccc(-c2cnc3ccc(-c4cccc(S(=O)(=O)CCCN)c4)nn23)cc1"
Result block: > 200 µM

Query block: Quick check: solubility of C[S+]([O-])c1cccc(-c2ccc3ncc(-c4ccc(C(N)=O)cc4)n3n2)c1 (stereo unspecified) ?
Result block: < 5 µM

----------
In this section we review reported solubility values for a set of compounds.
Assay Notes: Aqueous solubility of the compound at pH 2
Assay type: physicochemical
Experimental Setup: buffer

// known answers, use as guide
Query block: Please report the recorded solubility for "CS(=O)(=O)c1ccc(-c2cnc3ccc(-c4cncc(C(F)(F)F)c4)nn23)cc1" .
Result block: < 5 µM

Query block: For the compound shown here, "CS(=O)(=O)c1ccc(-c2cnc3ccc(-c4cccc(S(=O)(=O)C5CC5)c4)nn23)cn1" , give the reported solubility.
Result block: < 5 µM

Here is another compound to look at.
Query block: For "CS(=O)(=O)c1cncc(-c2ccc3ncc(-c4ccc(S(=O)(=O)C5CC5)cc4)n3n2)c1" , what is its reported solubility?
Result block: < 5 µM
